test system: RAW-Dual; experiment: NF-kB SEAP reporter activity, fold change vs agonist alone; cytotoxicity flag (confluency mask): not cytotoxic; higher = enhanced NF-kB activity; conditions: agonist: LPS (TLR4) 0.1 ug/mL
The full ranking holds about 2,900 compounds; the median of “NF-kB SEAP reporter activity, fold change vs agonist alone” is about 0.99, and the highest 2% start at about 2.6. This is one part of a sample in which the highest values are shown more often than they occur.
Decide using NF-kB SEAP reporter activity: a value greater than or equal to 1 is condition met, a smaller one is condition not met.

COMPOUND | CATEGORY
COC1(c2sc3c(N4CCOCC4)nc(-c4cnc(N)nc4)nc3c2C)COC1 (library stock concentration (final ~1000-fold dilution): 10 mM) | condition met
Br.NC(=O)C(c1ccccc1)(c1ccccc1)C1CCN(CCc2ccc3c(c2)CCO3)C1 (stereo not given) (library stock concentration (final ~1000-fold dilution): 10 mM) | condition not met
Cc1c(CN2CCN(C(=O)C(C)O)CC2)sc2c(N3CCOCC3)nc(-c3cnc(N)nc3)nc12 (stereo not given) (library stock concentration (final ~1000-fold dilution): 10 mM) | condition met
Cc1cc(Nc2cc(Cl)nc(Oc3ccc([N+](=O)[O-])cc3)n2)n[nH]1 (library stock concentration (final ~1000-fold dilution): 10 mM) | condition met
C=C1c2cccc(O)c2C(=O)C2=C(O)C3(O)C(=O)C(C(N)=O)=C(O)C(N(C)C)C3C(O)C12.Cl (stereo not given) (library stock concentration (final ~1000-fold dilution): 10 mM water) | condition met

====

tested on: RAW-Dual; assay: NF-kB SEAP reporter activity, fold change vs agonist alone; higher = enhanced NF-kB activity; details: library stock concentration (final ~1000-fold dilution): 10 mM; cytotoxicity flag (confluency mask): not cytotoxic; agonist: Imiquimod (TLR7) […]
Whole data set: some 2,900 compounds, median “NF-kB SEAP reporter activity, fold change vs agonist alone” near 0.99, cut for the highest 2% near 2.6. The entries come from a sample that favours the highest values as a whole.
Decide using NF-kB SEAP reporter activity: a value greater than or equal to 1 is 1, a smaller one is -1.

COMPOUND | CATEGORY
NC1(C(=O)NC(CCO)c2ccc(Cl)cc2)CCN(c2ncnc3[nH]ccc23)CC1 (stereo not drawn) | -1
COC12C(COC(N)=O)C3=C(C(=O)C(C)=C(N)C3=O)N1CC1NC12 (stereo not drawn) | 1
CS(=O)(=O)c1cccc(CC(NC(=O)c2c(Cl)cc3c(c2Cl)CCN(C(=O)c2ccc4ccoc4c2)C3)C(=O)O)c1 (stereo not drawn) | -1
CC(NC(=O)c1ccccc1N=Cc1c(O)ccc2ccccc12)c1ccccc1 (stereo not drawn) | 1
Cl.Nc1ccn(C2OC(CO)C(O)C2O)c(=O)n1 (stereo not drawn) | 1
CCC(CC)(NC(=O)C(C)C)C(=O)NC(CCCNC(=N)N)C(=O)NC1(C(=O)NC(c2ccc(F)cc2)c2ccc(F)cc2)CCCC1 (stereo not drawn) | 1
COc1ccc(C[C@@H]2c3cc(Oc4cc(C[C@@H]5c6cc(OC)c(OC)cc6CCN5C)ccc4O)c(OC)cc3CCN2C)cc1 | -1
CCC1(O)C(=O)OCc2c1cc1n(c2=O)Cc2cc3cc(O)ccc3nc2-1 (stereo not drawn) | -1
COC1C(=O)C2(C)C(OC)CC3OCC3(OC(C)=O)C2C(OC(=O)c2ccccc2)C2(O)CC(OC(=O)C(O)C(NC(=O)OC(C)(C)C)c3ccccc3)C(C)=C1C2(C)C (stereo not drawn) | 1
Cl.O=C1Cc2cc(CCN3CCN(c4nsc5ccccc45)CC3)c(Cl)cc2N1 | -1
CC(NC(=Nc1cccc2ncccc12)NC#N)c1ccccc1 (stereo not drawn) | -1
Cc1cc(C)c2c(c1)C(N(Cc1cc(C(F)(F)F)cc(C(F)(F)F)c1)c1nnn(C)n1)CCCN2CC1CCC(C(=O)O)CC1 (stereo not drawn) | -1
CC(NCc1ccc(OCc2cccc(F)c2)cc1)C(N)=O.CS(=O)(=O)O (stereo not drawn) | 1
CC(C)(C)C(=O)N1N=CCC1c1ccccc1 (stereo not drawn) | -1
CC(C)n1nc(-c2cc3cc(O)ccc3[nH]2)c2c(N)ncnc21 | -1
Cn1c(-c2ccccc2C(F)(F)F)nnc1C12CCC(c3noc(C4CC(F)(F)C4)n3)(CC1)CC2 | -1
CCN(CC)CCNC(=O)c1c(C)[nH]c(/C=C2\C(=O)Nc3ccc(F)cc32)c1C.O=C(O)CC(O)C(=O)O | -1
CC(=O)OC12COC1CC(O)C1(C)C(=O)C(O)C3=C(C)C(OC(=O)C(O)C(NC(=O)OC(C)(C)C)c4ccccc4)CC(O)(C(OC(=O)c4ccccc4)C21)C3(C)C.O.O.O (stereo not drawn) | 1
C#Cc1cccc(Nc2ncnc3cc4c(cc23)OCCOCCOCCO4)c1 | 1
CCC1OC(=O)C(C)C(OC2CC(C)(OC)C(O)C(C)O2)C(C)C(OC2OC(C)CC(N(C)C)C2O)C(C)(OC)CC(C)C(=O)C(C)C(O)C1(C)O (stereo not drawn) | -1
CC(NC(=O)CCc1nc2ccccc2c(=O)[nH]1)c1ccccc1 (stereo not drawn) | 1
CC(C(=O)Nc1cccc(N=Cc2c(O)ccc3ccccc23)c1)c1ccccc1 (stereo not drawn) | 1
C#Cc1cccc(Nc2ncnc3cc(OCCOC)c(OCCO)cc23)c1.Cl | 1
O.O=c1c(O)c(-c2ccc(O)cc2O)oc2cc(O)cc(O)c12 | -1
NS(=O)(=O)NCCNc1nonc1C(=Nc1ccc(F)c(Br)c1)NO | -1
C=CC(=O)N1CC(Nc2ncnc3[nH]ccc23)CCC1C (stereo not drawn) | -1
CC(C)Oc1ccc(C(=O)NC(CNC(=O)CN(C)C)Cc2ccc(-c3cn4cccc(C(C)O)c4n3)cc2)cc1Cl (stereo not drawn) | 1
CCO.N#CC(=C(\N)Sc1ccccc1N)/C(C#N)=C(/N)Sc1ccccc1N | -1
COc1cc2ncnc(Nc3cc(Br)c(O)c(Br)c3)c2cc1OC | -1
CC(C(=O)Nc1ccc(Cl)cc1)C1CCC(c2ccnc3ccc(F)cc23)CC1 (stereo not drawn) | 1
CC1=CC2(O)OC3(CC2=C(C)C)C(C)CCC13 (stereo not drawn) | -1
CCN(CC)Cc1ccc(C(=O)N(CCc2ccccc2OC)C2CCNC2)cc1 (stereo not drawn) | -1
CC(C)n1nc(-c2ccc(NC(=O)Nc3cc(C(F)(F)F)ccc3F)cc2)c2c(N)ncnc21 | -1
CC(=O)N1c2ccc(-c3ccc(C(=O)O)cc3)cc2C(Nc2ccc(Cl)cc2)CC1C (stereo not drawn) | 1
CS(=O)(=O)n1cc2c(n1)CN(C1COC(c3cc(F)ccc3F)C(N)C1)C2 (stereo not drawn) | -1
CC(C)n1nc(-c2ccc3oc(N)nc3c2)c2c(N)ncnc21 | 1

====

Listing of recorded NF-kB SEAP reporter activity by entry.
system: RAW-Dual; assay: NF-kB SEAP reporter activity, fold change vs agonist alone; cytotoxicity flag (confluency mask): not cytotoxic; higher = enhanced NF-kB activity; conditions: agonist: Pam3CSK4 (TLR2/1) 0.1 ug/mL
In all, about 2,900 compounds were measured (“NF-kB SEAP reporter activity, fold change vs agonist alone”: median about 0.99, highest 2% from about 2.6 on). The sample as a whole holds a higher share of the highest values than the screen did.
REPORTED_METRIC: NF-kB SEAP reporter activity

MOLECULE | ENDPOINT_VALUE
O=c1n(CCCN2CCN(c3cccc(Cl)c3)CC2)nc2ccccn12 (library stock concentration (final ~1000-fold dilution): 10 mM) | 1.22
N#Cc1cc(N2CCC(C(=O)N3N=CCC3c3cc(F)cc(F)c3)CC2)ncn1 (stereo unspecified) (library stock concentration (final ~1000-fold dilution): 10 mM) | 0.84
CCc1nn(CCCN2CCN(c3cccc(Cl)c3)CC2)c(=O)n1CCOc1ccccc1.Cl (library stock concentration (final ~1000-fold dilution): 10 mM) | 0.646
CC1OC(OC2C(O)C(OCCc3ccc(O)c(O)c3)OC(CO)C2OC(=O)/C=C/c2ccc(O)c(O)c2)C(O)C(O)C1O (stereo unspecified) (library stock concentration (final ~1000-fold dilution): 10 mM) | 1.11
CCC1OC(=O)C(C)C(OC2CC(C)(OC)C(O)C(C)O2)C(C)C(OC2OC(C)CC(N(C)C)C2O)C(C)(OC)CC(C)C(=O)C(C)C(O)C1(C)O (stereo unspecified) (library stock concentration (final ~1000-fold dilution): 10 mM) | 0.932
CC(=O)C(=O)Oc1ccccc1C(=O)O (library stock concentration (final ~1000-fold dilution): 10 mM) | 1.12
Cl.O=c1n(CCCN2CCN(c3cccc(Cl)c3)CC2)nc2ccccn12 (library stock concentration (final ~1000-fold dilution): 2 mM) | 1.37
CCOC(=O)C(CCc1ccccc1)NC(C)C(=O)N1Cc2ccccc2CC1C(=O)O.Cl (stereo unspecified) (library stock concentration (final ~1000-fold dilution): 10 mM) | 1.05
CC(Nc1ncnc(N)c1C#N)c1cc2cccc(-c3ccc(=O)n(C)c3)c2c(=O)n1C(C)C (stereo unspecified) (library stock concentration (final ~1000-fold dilution): 10 mM) | 3.02
CC(Nc1ncnc2[nH]cnc12)c1cc2cccc(Cl)c2c(=O)n1-c1ccccc1 (stereo unspecified) (library stock concentration (final ~1000-fold dilution): 10 mM) | 0.549
CCOCc1nc2c(N)nc3ccccc3c2n1CC(C)(C)O (library stock concentration (final ~1000-fold dilution): 3.2 mM) | 0.673
